Target: PD-1/PD-L1 interaction (Homo sapiens, UniProt Q9NZQ7)
Construct: expressed in transfected cells; Jurkat cells (PD-1 plus NFAT-luciferase)
Sequence (Q9NZQ7 19-290): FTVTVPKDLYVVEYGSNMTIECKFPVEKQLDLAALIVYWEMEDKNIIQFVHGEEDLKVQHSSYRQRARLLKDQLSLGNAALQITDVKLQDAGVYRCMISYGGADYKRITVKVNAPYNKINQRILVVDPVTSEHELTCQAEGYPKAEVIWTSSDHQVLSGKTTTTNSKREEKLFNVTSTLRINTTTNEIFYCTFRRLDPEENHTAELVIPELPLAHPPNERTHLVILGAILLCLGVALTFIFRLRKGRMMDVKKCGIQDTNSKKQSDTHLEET
Experiment: PD-1/PD-L1 NFAT Reporter Assay
Assay type: cell-based
Settings: co-culture of PD-L1 expressing CHO cells and PD-1 overexpressing Jurkat cells, 6 hrs, NFAT luciferase
observationType: EC50

compoundSmiles	value
COc1nc(-c2cccc(-c3cccc(NC(=O)c4ccnn(C)c4=O)c3Cl)c2Cl)ccc1CNCCC(=O)O	0.01 to 0.1 µM
COc1nc(-c2cccc(-c3cccc(NC(=O)c4ccnn(C)c4=O)c3C)c2Cl)cc(C)c1CNC[C@@H]1CCC(=O)N1	≤ 0.01 µM
COc1nc(-c2cccc(-c3cccc(NC(=O)c4ccnn(C)c4=O)c3C)c2Cl)ccc1CN1CC(NC(C)=O)C1	0.01 to 0.1 µM
COc1nc(-c2cccc(-c3cccc(NC(=O)c4ccnn(C)c4=O)c3Cl)c2Cl)ccc1CN[C@](C)(CO)C(=O)O	0.01 to 0.1 µM
COc1nc(-c2cccc(-c3cccc(NC(=O)c4ccnn(C)c4=O)c3C)c2Cl)ccc1CN1CC(C(=O)O)C1	0.01 to 0.1 µM
COc1nc(-c2cccc(-c3cccc(NC(=O)c4ccnn(C)c4=O)c3Cl)c2Cl)ccc1CN[C@H]1CCC[C@H]1C(=O)O	0.1 to 1 µM
COc1nc(-c2cccc(-c3cccc(NC(=O)c4ccnn(C)c4=O)c3C)c2Cl)ccc1CN1CC[C@H](C(=O)O)C1	0.01 to 0.1 µM
COc1nc(-c2cccc(-c3cccc(NC(=O)c4ccnn(C)c4=O)c3C)c2Cl)cnc1CN1CC[C@H](O)C1	≤ 0.01 µM

Ask | Retrieve EC50 measured for "COc1nc(-c2cccc(-c3cccc(NC(=O)c4ccnn(C)c4=O)c3Cl)c2Cl)ccc1CN1CCCC[C@H]1C(=O)O" and print it.
Reply | 0.1 to 1 µM

Ask | Retrieve EC50 measured for "COc1nc(-c2cccc(-c3cccc(NC(=O)c4ccnn(C)c4=O)c3C)c2Cl)ccc1CN1CC(C)(C(=O)O)C1" and print it.
Reply | 0.01 to 0.1 µM

Ask | Retrieve EC50 measured for "COc1nc(-c2cccc(-c3cccc(NC(=O)c4ccnn(C)c4=O)c3Cl)c2Cl)ccc1CN[C@@H]1CN(C(C)=O)C[C@H]1O" and print it.
Reply | 0.01 to 0.1 µM
